Target: Indoleamine 2,3-dioxygenase 1 (Homo sapiens, UniProt P14902)
Sequence (P14902 whole entry): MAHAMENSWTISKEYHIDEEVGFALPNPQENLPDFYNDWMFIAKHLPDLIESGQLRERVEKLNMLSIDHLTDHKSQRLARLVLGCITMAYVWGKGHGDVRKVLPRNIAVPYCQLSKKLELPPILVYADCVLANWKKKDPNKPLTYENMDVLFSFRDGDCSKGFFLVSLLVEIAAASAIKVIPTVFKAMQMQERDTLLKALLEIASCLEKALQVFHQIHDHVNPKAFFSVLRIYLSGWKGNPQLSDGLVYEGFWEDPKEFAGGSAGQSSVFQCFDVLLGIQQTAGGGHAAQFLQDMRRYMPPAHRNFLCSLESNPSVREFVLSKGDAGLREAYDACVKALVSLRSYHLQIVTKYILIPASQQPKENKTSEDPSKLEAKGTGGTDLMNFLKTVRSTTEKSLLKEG
This listing pairs compounds with measured IC50.
Give the value in nM but do not write nM after it.

Example entries begin here.
SMILES ENTRY: O=C1c2ccccc2C(=O)c2c1nnn2-c1ccc(-c2nnn[nH]2)cc1
IC50 [nM]: 60
--
SMILES ENTRY: O=C1c2cc(F)ccc2C(=O)c2c1nnn2-c1ccc(F)c(Cl)c1
IC50 [nM]: 5
--
SMILES ENTRY: Cc1cccc(-n2nnc3c2C(=O)c2ccccc2C3=O)c1
IC50 [nM]: 122

API: the following record is the query input.
Entry "O=C1c2ccccc2C(=O)c2c1nnn2-c1ccc2ccncc2c1" , tested on Indoleamine 2,3-dioxygenase 1 (Homo sapiens, UniProt P14902), has a reported IC50 of 40
